meta.source: patent US20220348651A1

Biological target: T1, human ENTPD2 expressed on cells (human, UniProt Q9Y5L3 1-495)
T1 sequence: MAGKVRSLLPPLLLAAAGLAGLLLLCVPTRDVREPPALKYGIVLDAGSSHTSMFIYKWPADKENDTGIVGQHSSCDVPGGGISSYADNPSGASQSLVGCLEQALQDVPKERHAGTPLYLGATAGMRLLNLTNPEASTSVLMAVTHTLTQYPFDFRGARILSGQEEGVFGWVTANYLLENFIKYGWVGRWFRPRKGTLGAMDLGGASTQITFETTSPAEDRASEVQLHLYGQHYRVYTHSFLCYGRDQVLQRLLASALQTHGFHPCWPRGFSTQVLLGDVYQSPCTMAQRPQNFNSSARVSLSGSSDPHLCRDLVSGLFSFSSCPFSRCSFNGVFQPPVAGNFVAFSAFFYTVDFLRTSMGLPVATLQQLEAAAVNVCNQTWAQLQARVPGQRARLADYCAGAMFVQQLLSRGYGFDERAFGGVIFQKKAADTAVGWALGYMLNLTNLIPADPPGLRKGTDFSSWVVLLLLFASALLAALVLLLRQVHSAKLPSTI
Test: cell-based or functional assay
Listing of entries alongside the reported % inhibition, Human ENTPD2 NIH/3T3 Assay.
assay.readout: % inhibition, Human ENTPD2 NIH/3T3 Assay (%)

- ANTI-HUMAN ENTPD2 MAB10 (antibody, human IgG1, lambda, V domains shown, also called Anti-ENTPD2 mAb10) VH: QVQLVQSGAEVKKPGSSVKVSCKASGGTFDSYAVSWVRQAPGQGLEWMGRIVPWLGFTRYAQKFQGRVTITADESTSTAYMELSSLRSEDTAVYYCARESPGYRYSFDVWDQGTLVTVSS VL: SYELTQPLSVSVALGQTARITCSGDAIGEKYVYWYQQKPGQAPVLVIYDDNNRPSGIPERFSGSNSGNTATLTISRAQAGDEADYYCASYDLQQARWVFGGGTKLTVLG: 88
- ANTI-HUMAN ENTPD2 MAB17 (antibody, human IgG1, kappa, V domains shown) VH: EVQLQQFGAELVKPGASVKISCKASGYTFTDYNMDWVKQSHGKSLEWIGDINPKYDISTYNQQFKGKATLTVDKSSSTAYMELRSLTSEDTAVYYCARRGFFLYYGINYYYFDVWGAGTTVTVSS VL: QIVLTQSPAIMSASLGEEITLTCSASSSVSYIHWYQQKSGTSPTLLIYSTSNLASGVPSRFSGSGSGTFYSLTISSVEAEDAADYYCHQWSSYPWTFGGGTKLEIKR: 98
- ANTI-HUMAN ENTPD2 MAB3 (antibody, human IgG1, kappa, V domains shown, humanized from mAb17; human IgG1, kappa; also called Anti-ENTPD2 mAb3) VH: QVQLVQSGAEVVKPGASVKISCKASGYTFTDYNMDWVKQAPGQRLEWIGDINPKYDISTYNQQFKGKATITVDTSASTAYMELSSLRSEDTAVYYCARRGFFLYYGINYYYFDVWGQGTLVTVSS VL: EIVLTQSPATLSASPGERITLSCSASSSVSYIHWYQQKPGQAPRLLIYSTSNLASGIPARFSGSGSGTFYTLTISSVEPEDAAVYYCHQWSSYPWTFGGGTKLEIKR: 91
